tested on: Fibroblast; test: Multiplex assay against human fibroblast; assay type: toxicity, cell-based; conditions: 24 h, 1 µM, compound concentration 1 uM, replicate 1
property.measured: Population Mitotic Cells (%)
Report the value in % with no unit label.

# input Record lookup: for Fibroblast, what Population Mitotic Cells (%) belongs to `CCCn1c(=O)c2[nH]c(-c3cnn(Cc4cccc(C(F)(F)F)c4)c3)nc2n(CC)c1=O` ?
# output 29

# input Record lookup: for Fibroblast, what Population Mitotic Cells (%) belongs to CCOC(=O)c1c(C)[nH]c2ccc3c(c12)CN1CCc2cc(OC)ccc2C1O3 (stereo not drawn) ?
# output 37

# input Record lookup: for Fibroblast, what Population Mitotic Cells (%) belongs to `CCn1cc(-c2ccnc3[nH]c(-c4cccc(CN(C)C)c4)cc23)c(-c2ccc(NC(=O)N(C)C)cc2)n1` ?
# output 30

New cases:
# input Record lookup: for Fibroblast, what Population Mitotic Cells (%) belongs to `Cn1nc(C(F)(F)F)cc1-c1cnc(N2CCc3cc(S(=O)(=O)Nc4c(F)cc(Cl)cc4F)cc(N4CCCC4=O)c32)nc1` ?
# output 48

# input Record lookup: for Fibroblast, what Population Mitotic Cells (%) belongs to COc1cc2ncnc(Nc3ccc(F)c(Cl)c3)c2cc1NC(=O)/C=C/CN1CCCCC1 [DACOMITINIB ANHYDROUS] ?
# output 28

# input Record lookup: for Fibroblast, what Population Mitotic Cells (%) belongs to `C=C1/C(=C\C=C2/CCC[C@]3(C)[C@@H]([C@H](C)/C=C/[C@H](C)C(C)C)CC[C@@H]23)C[C@@H](O)C[C@@H]1O` ?
# output 61

# input Record lookup: for Fibroblast, what Population Mitotic Cells (%) belongs to CN1CCC(=C2c3ccccc3CC(=O)c3sccc32)CC1.O=C(O)/C=C/C(=O)O [KETOTIFEN FUMARATE] ?
# output 36

# input Record lookup: for Fibroblast, what Population Mitotic Cells (%) belongs to `COc1cc(N2CCN(C)CC2)ccc1Nc1ncc2c(n1)N(C)c1ccccc1C(=O)N2C` ?
# output 39

# input Record lookup: for Fibroblast, what Population Mitotic Cells (%) belongs to CN(C)C(=O)C(CCN1CCC(O)(c2ccc(Cl)cc2)CC1)(c1ccccc1)c1ccccc1.Cl [LOPERAMIDE HYDROCHLORIDE] ?
# output 54

###

tested on: U2OS; assay: Multiplex assay against U2OS; type: toxicity, cell-based; settings: human, 12 h, 1 µM, compound concentration 1 uM, replicate 1
Listed next: entries and their corresponding Population Fragmented Nuclei (%).
Reply with the number, then its unit.

# input Which measured Population Fragmented Nuclei (%) value corresponds to `Cc1ccc(C(=O)Nc2cccc(C(F)(F)F)c2)cc1Nc1nc(-c2cccnc2)nc2c1cnn2C` ?
# output 18%

# input Which measured Population Fragmented Nuclei (%) value corresponds to `O=C(Nc1cccnn1)N1CCC(=Cc2cccc(Oc3ccc(C(F)(F)F)cn3)c2)CC1` ?
# output 1%

# input Which measured Population Fragmented Nuclei (%) value corresponds to `Cl.O=c1c2cccn2c2ccccc2n1CCCN1CCC(c2ccc(Cl)cc2)CC1` ?
# output 8%

###

Listed next: entries and their corresponding Population Mitochondria Different-Phenotype (%).
test system: Fibroblast; assay: Multiplex assay against human fibroblast; type: toxicity, cell-based; details: 24 h, 1 µM, compound concentration 1 uM, replicate 2
Report the value in % with no unit label.

A selection of reference data follows.
# input Which measured Population Mitochondria Different-Phenotype (%) value corresponds to `Cc1cn(-c2cc(NC(=O)c3ccc(C)c(Nc4nccc(-c5cccnc5)n4)c3)cc(C(F)(F)F)c2)cn1` ?
# output 20

# input Which measured Population Mitochondria Different-Phenotype (%) value corresponds to `CCn1cc(-c2ccnc3[nH]c(-c4cccc(CN(C)C)c4)cc23)c(-c2ccc(NC(=O)N(C)C)cc2)n1` ?
# output 14

# input Which measured Population Mitochondria Different-Phenotype (%) value corresponds to `Cn1nc(C(F)(F)F)cc1-c1cnc(N2CCc3cc(S(=O)(=O)Nc4c(F)cc(Cl)cc4F)cc(N4CCCC4=O)c32)nc1` ?
# output 27

# input Which measured Population Mitochondria Different-Phenotype (%) value corresponds to `CCN1CCN(c2ccc(Nc3cc(N(C)C(=O)Nc4c(Cl)c(OC)cc(OC)c4Cl)ncn3)cc2)CC1` ?
# output 23

# input Which measured Population Mitochondria Different-Phenotype (%) value corresponds to `CCNc1cc(N[C@H]2CC[C@H](O)CC2)nc(Nc2ccc3c(ccn3Cc3ccccc3)c2)n1` ?
# output 50

Turning to the following compound.
# input Which measured Population Mitochondria Different-Phenotype (%) value corresponds to `C=CCn1c(=O)c2cnc(Nc3ccc(N4CCN(C)CC4)cc3)nc2n1-c1cccc(C(C)(C)O)n1` ?
# output 8

###

Listed next: entries and their corresponding Population Apoptotic (%).
system: HEK-293T; assay: Multiplex assay against HEK293T; format: toxicity, cell-based; settings: human, 48 h, 10 µM, compound concentration 10 uM, replicate 2
Report the value in % with no unit label.

# input Which measured Population Apoptotic (%) value corresponds to O=C1NC(=O)C(c2cnc3ccccn23)=C1c1cn2c3c(cc(F)cc13)CN(C(=O)N1CCCCC1)CC2 [LY-2090314] ?
# output 78

# input Which measured Population Apoptotic (%) value corresponds to `CNc1cc(Oc2cc(C(=O)Nc3cc(N4CCN(C)CC4)cc(C(F)(F)F)c3)ccc2C)ncn1` ?
# output 98

# input Which measured Population Apoptotic (%) value corresponds to `CCCS(=O)(=O)c1nc(NC2CC2)cc(-c2ccc3c(ccn3C3CC(C)(C)NC(C)(C)C3)c2)n1` ?
# output 87

# input Which measured Population Apoptotic (%) value corresponds to CCOc1cc2ncc(C#N)c(Nc3ccc(OCc4ccccn4)c(Cl)c3)c2cc1NC(=O)/C=C/CN(C)C [NERATINIB] ?
# output 42

New cases:
# input Which measured Population Apoptotic (%) value corresponds to `O=C1N/C(=N/c2ccccc2F)S/C1=C\c1ccc(C(=O)O)cc1` ?
# output 6

###

system: HEK-293T; assay: Multiplex assay against HEK293T; assay type: toxicity, cell-based; conditions: human, 24 h, 10 µM, compound concentration 10 uM, replicate 1
Listed next: entries and their corresponding Population Apoptotic (%).
Report the value in % with no unit label.

# input Which measured Population Apoptotic (%) value corresponds to `CCOc1cc2ncc(C#N)c(Nc3ccc(OCc4ccccn4)c(Cl)c3)c2cc1NC(=O)/C=C/CN(C)C` ?
# output 50

# input Which measured Population Apoptotic (%) value corresponds to `O=C(Nc1cccnn1)N1CCC(=Cc2cccc(Oc3ccc(C(F)(F)F)cn3)c2)CC1` ?
# output 17

# input Which measured Population Apoptotic (%) value corresponds to `CN1CCN(C(=O)C(C)(C)c2ccc(C(=O)Nc3cn4cc(-c5cc(C(C)(C)C)cc(C(C)(C)C)c5)ccc4n3)cc2)CC1` ?
# output 27

###

test system: HEK-293T; experiment: Multiplex assay against HEK293T; format: toxicity, cell-based; settings: human, 24 h, 1 µM, compound concentration 1 uM, replicate 1
Would you mind classing the entries by Total Cell Count? Ranges: range 1: < 300; range 2: ≥ 300 and < 600; range 3: ≥ 600

Observe how each entry below is paired with its result.
# input GET /class?item= `Cc1cn(-c2cc(NC(=O)c3ccc(C)c(Nc4nccc(-c5cccnc5)n4)c3)cc(C(F)(F)F)c2)cn1`
# output range 1

# input GET /class?item= `CCNc1cc(N[C@H]2CC[C@H](O)CC2)nc(Nc2ccc3c(ccn3Cc3ccccc3)c2)n1`
# output range 3

# input GET /class?item= `CCCS(=O)(=O)c1nc(NC2CC2)cc(-c2ccc3c(ccn3C3CC(C)(C)NC(C)(C)C3)c2)n1`
# output range 2

New cases:
# input GET /class?item= `Cl.O=c1c2cccn2c2ccccc2n1CCCN1CCC(c2ccc(Cl)cc2)CC1`
# output range 1

# input GET /class?item= `CCCS(=O)(=O)Nc1ccc(F)c(C(=O)c2c[nH]c3ncc(Cl)cc23)c1F`
# output range 3

# input GET /class?item= `CCn1c(=O)c(-c2ccc(-c3cncs3)cc2Cl)cc2cnc(Nc3ccc(N4CCN(C)CC4)cc3)nc21`
# output range 1

# input GET /class?item= `CNc1cc(Oc2cc(C(=O)Nc3cc(N4CCN(C)CC4)cc(C(F)(F)F)c3)ccc2C)ncn1`
# output range 1

# input GET /class?item= `COc1ccc(S(=O)(=O)N(CCO)c2ccccc2CN(C)C/C=C/c2ccc(Cl)cc2)cc1.O=P(O)(O)O`
# output range 2

# input GET /class?item= `Cc1ccc2nc(NCCN)c3ncc(C)n3c2c1.O=C(O)C(F)(F)F.O=C(O)C(F)(F)F`
# output range 3

# input GET /class?item= `C=C1/C(=C\C=C2/CCC[C@]3(C)[C@@H]([C@H](C)/C=C/[C@H](C)C(C)C)CC[C@@H]23)C[C@@H](O)C[C@@H]1O`
# output range 1

# input GET /class?item= `Cn1nc(C(F)(F)F)cc1-c1cnc(N2CCc3cc(S(=O)(=O)Nc4c(F)cc(Cl)cc4F)cc(N4CCCC4=O)c32)nc1`
# output range 3

# input GET /class?item= `O=C(Nc1ccc(-n2nc(-c3cccnc3)cc2C(F)(F)F)cn1)c1ccc(-c2ccccc2)c(F)c1`
# output range 1
